Values were extracted from the NIST ThermoML archive (doi:10.1016/j.jct.2003.11.008).

Conditions: 318.15 K; 101.33 kPa; Liquid; Vibrating tube method
In this section we review reported mass density values for a set of compounds.
Respond with the bare value in kg/m3.

Consider the following illustrative entries.
{"compound": "CCCCOC(C)=O [butyl ethanoate]", "readout-units": "kg/m3", "mass density": 855.39}
{"compound": "CCCOC(C)=O [propyl ethanoate]", "readout-units": "kg/m3", "mass density": 859.78}
{"compound": "CCCCCCCCCCCCCCCCC [heptadecane]", "readout-units": "kg/m3", "mass density": 760.8}
{"compound": "CCCCCCC [heptane]", "readout-units": "kg/m3", "mass density": 662.04}
{"compound": "CCOC(C)=O [ethyl acetate]", "readout-units": "kg/m3", "mass density": 869.54}
{"compound": "CCCCCCCCCCC [undecane]", "readout-units": "kg/m3", "mass density": 721.76}
{"compound": "COC(C)=O [methyl ethanoate]", "readout-units": "kg/m3", "mass density": 900.1}
{"compound": "CCCCCCCCCCCCC [tridecane]", "readout-units": "kg/m3", "mass density": 738.34}
{"compound": "CCCCCOC(C)=O [pentyl ethanoate]", "readout-units": "kg/m3", "mass density": 852.93}
{"compound": "CCCCCCCCC [nonane]", "readout-units": "kg/m3", "mass density": 698.06}

Would you kindly look at the next entry?
Which mass density is listed for CCCCCCCCCCCCCCC [pentadecane] ?
750.9

###

Assay: refractive index (Na D-line) (dimensionless)
Conditions: 318.15 K; 101.33 kPa; Liquid; Standard Abbe refractometry
property: refractive index
// response body must contain only the number

{"compound": "COC(C)=O [methyl ethanoate]", "refractive index": 1.349}

Any idea what its refractive index is? The compound is CCCOC(C)=O [propyl ethanoate]
1.3721

Suppose we examine the compound `CCCCCCC` ; what refractive index value has been reported?
1.3748

Dear colleague, I am looking for the recorded refractive index of the following compound: `CCCCCCCCCCCCC`
1.4155

Please look up its refractive index: `CCCCCCCCCCC`
1.4063

Given CCOC(C)=O [ethyl acetate] , state its recorded refractive index.
1.3597

So what's the measured refractive index for this one? `CCCCCCCCCCCCCCCCC`
1.4268

Any idea what its refractive index is? The compound is `CCCCCCCCC`
1.3939

###

Assay: refractive index (Na D-line) (dimensionless)
Settings: 318.15 K; 101.33 kPa; Liquid; Standard Abbe refractometry
Measured refractive index, listed per entry.
// response body must contain only the number

Consider the reported refractive index for these compounds:
{"compound": "CCCCOC(C)=O [butyl ethanoate]", "refractive index": 1.3825}
{"compound": "CCCCCOC(C)=O [pentyl ethanoate]", "refractive index": 1.391}

Next, consider the following compound.
Look up refractive index for this compound: CCCCCCCCCCCCCCC [pentadecane]
1.4212
